FYI, the data here is from ChEMBL document CHEMBL1135773.

Target: P2X purinoceptor 3 (Homo sapiens, UniProt P56373)
Sequence (P56373 whole entry): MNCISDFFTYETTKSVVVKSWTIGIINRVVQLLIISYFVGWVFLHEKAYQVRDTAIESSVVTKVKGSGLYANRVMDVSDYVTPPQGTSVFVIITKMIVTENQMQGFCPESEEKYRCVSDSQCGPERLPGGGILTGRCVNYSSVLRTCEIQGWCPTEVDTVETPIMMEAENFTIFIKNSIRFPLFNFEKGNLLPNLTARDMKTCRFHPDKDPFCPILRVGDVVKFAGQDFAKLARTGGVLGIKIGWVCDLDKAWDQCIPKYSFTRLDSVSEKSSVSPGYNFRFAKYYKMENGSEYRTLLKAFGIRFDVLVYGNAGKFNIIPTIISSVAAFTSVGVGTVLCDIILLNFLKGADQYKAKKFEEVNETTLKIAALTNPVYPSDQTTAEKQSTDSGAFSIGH
Assay: Antagonist activity against recombinant human P2X purinoceptor 3 (P2X3 )
pEC50: −log10 of the molar value.
Reported pEC50 is given for each of the following compounds.

{"COMPOUND": "Nc1ncnc2c1ncn2[C@@H]1O[C@H](CO[P@](=O)(O)O[P@](=O)(O)O[P@@](=O)(O)S)[C@@H](O)[C@H]1O", "OPERATOR": "=", "pEC50": 6.16}
{"COMPOUND": "Nc1ncnc2c1ncn2[C@@H]1O[C@H](COP(=O)(O)OP(=O)(O)OP(=O)(O)OP(=O)(O)OC[C@H]2O[C@@H](n3cnc4c(N)ncnc43)[C@H](O)[C@@H]2O)[C@@H](O)[C@H]1O [DIADENOSINE TETRAPHOSPHATE]", "OPERATOR": "=", "pEC50": 6.30}
{"COMPOUND": "Nc1ncnc2c1ncn2[C@@H]1O[C@H](COP(=O)(O)OP(=O)(O)OP(=O)(O)O)[C@@H](O)[C@H]1O [ADENOSINE TRIPHOSPHATE]", "OPERATOR": "=", "pEC50": 6.47}
{"COMPOUND": "Nc1ncnc2c1ncn2[C@@H]1O[C@H](COP(=O)(O)OP(=O)(O)S)[C@@H](O)[C@H]1O (some centres not stated)", "OPERATOR": "=", "pEC50": 5.06}
{"COMPOUND": "Nc1ncnc2c1ncn2[C@@H]1O[C@H](COP(=O)(O)CP(=O)(O)OP(=O)(O)O)[C@@H](O)[C@H]1O", "OPERATOR": "=", "pEC50": 6.13}
{"COMPOUND": "CSc1nc(N)c2ncn([C@@H]3O[C@H](COP(=O)(O)OP(=O)(O)OP(=O)(O)O)[C@@H](O)[C@H]3O)c2n1", "OPERATOR": "=", "pEC50": 6.46}
{"COMPOUND": "Nc1ncnc2c1ncn2[C@@H]1O[C@H](COP(=O)(O)OP(=O)(O)O)[C@@H](O)[C@H]1O [ADENOSINE DIPHOSPHATE]", "OPERATOR": "<", "pEC50": 4.00}

---

Molecular target: P2X purinoceptor 2 (Rattus norvegicus, UniProt P49653)
Sequence (P49653 whole entry): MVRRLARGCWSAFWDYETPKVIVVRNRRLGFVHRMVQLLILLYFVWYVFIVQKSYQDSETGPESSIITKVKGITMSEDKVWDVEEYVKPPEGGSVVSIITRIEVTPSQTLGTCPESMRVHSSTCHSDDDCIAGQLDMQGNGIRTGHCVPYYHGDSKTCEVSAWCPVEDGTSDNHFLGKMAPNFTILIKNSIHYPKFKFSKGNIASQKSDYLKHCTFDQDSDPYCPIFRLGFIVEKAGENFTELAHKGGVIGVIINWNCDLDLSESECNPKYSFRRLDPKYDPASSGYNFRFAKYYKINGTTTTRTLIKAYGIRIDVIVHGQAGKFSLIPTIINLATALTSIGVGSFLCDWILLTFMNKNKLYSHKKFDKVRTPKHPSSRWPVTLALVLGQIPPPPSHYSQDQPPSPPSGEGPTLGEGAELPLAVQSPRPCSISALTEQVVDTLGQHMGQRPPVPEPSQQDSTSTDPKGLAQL
Assay: The compound was evaluated for antagonist activity against recombinant rat P2X purinoceptor 2 (P2X2) at 10 uM

{"STRUCTURE_STRING": "O=C(Nc1cccc(C(=O)Nc2ccc(S(=O)(=O)O)c3cc(S(=O)(=O)O)cc(S(=O)(=O)O)c23)c1)Nc1cccc(C(=O)Nc2ccc(S(=O)(=O)O)c3cc(S(=O)(=O)O)cc(S(=O)(=O)O)c23)c1", "IC50": "> 50 µM"}

---

Biological target: P2X purinoceptor 6 (Rattus norvegicus, UniProt P51579)
Sequence (P51579 whole entry): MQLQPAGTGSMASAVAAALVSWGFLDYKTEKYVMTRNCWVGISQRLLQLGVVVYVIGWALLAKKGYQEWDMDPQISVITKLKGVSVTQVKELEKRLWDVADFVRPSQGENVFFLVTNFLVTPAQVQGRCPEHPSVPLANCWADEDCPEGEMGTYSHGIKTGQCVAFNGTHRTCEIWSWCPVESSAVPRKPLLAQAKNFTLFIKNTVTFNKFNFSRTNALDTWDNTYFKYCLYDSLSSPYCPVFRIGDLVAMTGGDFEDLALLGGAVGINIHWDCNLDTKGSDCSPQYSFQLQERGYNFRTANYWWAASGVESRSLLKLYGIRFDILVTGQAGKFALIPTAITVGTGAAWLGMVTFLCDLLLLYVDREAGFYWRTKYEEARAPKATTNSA
Test: Antagonist activity against recombinant rat P2X purinoceptor 6 (P2X6 )
pEC50: −log10 of the molar value.

{"MOLECULE": "Cc1nc(/N=N/c2ccc(S(=O)(=O)O)cc2S(=O)(=O)O)c(COP(=O)(O)O)c(C=O)c1O", "pEC50": "< 4.00"}
{"MOLECULE": "Nc1ncnc2c1ncn2[C@@H]1O[C@H](CO[P@](=O)(O)O[P@](=O)(O)O[P@@](=O)(O)S)[C@@H](O)[C@H]1O", "pEC50": 5.89}
{"MOLECULE": "Cc1ccc(C(=O)Nc2ccc(S(=O)(=O)O)c3cc(S(=O)(=O)O)cc(S(=O)(=O)O)c23)cc1NC(=O)c1cccc(NC(=O)Nc2cccc(C(=O)Nc3cc(C(=O)Nc4ccc(S(=O)(=O)O)c5cc(S(=O)(=O)O)cc(S(=O)(=O)O)c45)ccc3C)c2)c1 [SURAMIN]", "pEC50": "< 4.00"}

---

Molecular target: P2X purinoceptor 1 (Rattus norvegicus, UniProt P47824)
Assay: The compound was evaluated for antagonist activity against P2X purinoceptor 1 (P2X1) like receptor from rat vas deferens
Assay type: functional
pIC50: −log10 of the molar value.
Reported pIC50 is given for each of the following compounds.
ATTRIBUTE_MEASURED: pIC50

{"STRUCTURE_STRING": "Nc1c(S(=O)(=O)O)cc(Nc2ccc(Nc3nc(Cl)nc(Cl)n3)c(S(=O)(=O)O)c2)c2c1C(=O)c1ccccc1C2=O", "ATTRIBUTE_MEASURED": "pIC50", "REPORTED": 5.06}
{"STRUCTURE_STRING": "Nc1c(S(=O)(=O)O)cc(Nc2ccc(Nc3nc(Cl)nc(Cl)n3)cc2S(=O)(=O)O)c2c1C(=O)c1ccccc1C2=O", "ATTRIBUTE_MEASURED": "pIC50", "REPORTED": 5.80}

---

Target: P2X purinoceptor 3 (Rattus norvegicus)
Sequence (P49654 whole entry): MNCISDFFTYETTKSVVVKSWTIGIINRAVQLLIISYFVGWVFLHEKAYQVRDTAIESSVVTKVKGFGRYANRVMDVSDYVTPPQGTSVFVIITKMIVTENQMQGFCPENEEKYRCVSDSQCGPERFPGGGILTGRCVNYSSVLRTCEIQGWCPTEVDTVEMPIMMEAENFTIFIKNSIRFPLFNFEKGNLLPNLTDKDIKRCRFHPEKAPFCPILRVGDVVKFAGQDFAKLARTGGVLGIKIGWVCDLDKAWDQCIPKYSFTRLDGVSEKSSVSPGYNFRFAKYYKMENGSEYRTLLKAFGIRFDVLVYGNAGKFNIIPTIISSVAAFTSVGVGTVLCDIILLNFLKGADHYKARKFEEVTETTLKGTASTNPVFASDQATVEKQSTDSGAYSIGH
Test: The compound was evaluated for antagonist activity against recombinant rat P2X purinoceptor 3 (P2X3) at 3 uM, expressed in Xenopus oocytes
pEC50: −log10 of the molar value.

{"STRUCTURE_STRING": "Cc1nc(/N=N/c2cc(CP(=O)(O)O)cc(CP(=O)(O)O)c2)c(COP(=O)(O)O)c(C=O)c1O", "pEC50": 7.66}

---

Target: P2X purinoceptor 1 (Rattus norvegicus)
Sequence (P47824 whole entry): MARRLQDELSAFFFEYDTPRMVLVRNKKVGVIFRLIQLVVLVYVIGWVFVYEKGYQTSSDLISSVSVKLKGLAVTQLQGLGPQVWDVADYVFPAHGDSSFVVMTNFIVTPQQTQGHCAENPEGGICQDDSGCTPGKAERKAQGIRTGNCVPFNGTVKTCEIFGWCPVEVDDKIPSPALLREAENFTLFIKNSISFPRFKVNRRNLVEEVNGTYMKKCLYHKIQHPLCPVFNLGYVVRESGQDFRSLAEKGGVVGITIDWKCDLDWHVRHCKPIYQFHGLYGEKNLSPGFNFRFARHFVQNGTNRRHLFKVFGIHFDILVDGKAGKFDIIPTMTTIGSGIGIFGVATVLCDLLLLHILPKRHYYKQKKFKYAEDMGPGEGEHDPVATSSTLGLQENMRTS
Experiment: The compound was evaluated for antagonist activity against P2X purinoceptor 1 (P2X1) like receptor from rat vas deferens
Format: functional

{"MOLECULE": "Cc1cc(C)c(Nc2cc(S(=O)(=O)O)c(N)c3c2C(=O)c2ccccc2C3=O)c(C)c1 [ACID BLUE 129]", "Kd": "> 100 µM"}

---

Biological target: UniProt P49651
Sequence (P49651 whole entry, looked up): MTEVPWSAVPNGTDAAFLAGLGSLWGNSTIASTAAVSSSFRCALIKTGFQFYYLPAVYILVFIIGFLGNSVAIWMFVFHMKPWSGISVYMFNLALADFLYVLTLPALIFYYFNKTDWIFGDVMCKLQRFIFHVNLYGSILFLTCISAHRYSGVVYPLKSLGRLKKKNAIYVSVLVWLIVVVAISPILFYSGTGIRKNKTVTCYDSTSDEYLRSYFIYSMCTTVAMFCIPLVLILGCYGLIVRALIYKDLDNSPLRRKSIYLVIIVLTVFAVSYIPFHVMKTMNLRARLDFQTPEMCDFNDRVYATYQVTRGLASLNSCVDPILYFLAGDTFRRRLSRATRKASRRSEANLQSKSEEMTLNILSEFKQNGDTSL
Assay: Evaluated for agonist activity against phospholipase C coupled P2Y purinoceptor 1 (P2Y1) of rat erythrocytes

{"STRUCTURE_STRING": "Cc1nc(/N=N/c2ccc(S(=O)(=O)O)cc2S(=O)(=O)O)c(COP(=O)(O)O)c(C=O)c1O", "EC50": "18.2 µM"}

---

Target: P2X purinoceptor 6 (Rattus norvegicus)
Assay: Antagonist activity against recombinant rat P2X purinoceptor 6 (P2X6 )
ATTRIBUTE_MEASURED: EC50 (µM)

{"COMPOUND": "CSc1nc(N)c2ncn([C@@H]3O[C@H](COP(=O)(O)OP(=O)(O)OP(=O)(O)O)[C@@H](O)[C@H]3O)c2n1", "UNIT_NAME": "µM", "OPERATOR": "=", "REPORTED": 0.6}
{"COMPOUND": "Nc1ncnc2c1ncn2[C@@H]1O[C@H](COP(=O)(O)CP(=O)(O)OP(=O)(O)O)[C@@H](O)[C@H]1O", "UNIT_NAME": "µM", "OPERATOR": ">", "REPORTED": 8}
{"COMPOUND": "Nc1ncnc2c1ncn2[C@@H]1O[C@H](COP(=O)(O)OP(=O)(O)O)[C@@H](O)[C@H]1O [ADENOSINE DIPHOSPHATE]", "UNIT_NAME": "µM", "OPERATOR": "=", "REPORTED": 11}
{"COMPOUND": "Nc1ncnc2c1ncn2[C@@H]1O[C@H](COP(=O)(O)OP(=O)(O)OP(=O)(O)O)[C@@H](O)[C@H]1O [ADENOSINE TRIPHOSPHATE]", "UNIT_NAME": "µM", "OPERATOR": "=", "REPORTED": 1}

---

Molecular target: UniProt:Q99571
Sequence (Q99571 whole entry): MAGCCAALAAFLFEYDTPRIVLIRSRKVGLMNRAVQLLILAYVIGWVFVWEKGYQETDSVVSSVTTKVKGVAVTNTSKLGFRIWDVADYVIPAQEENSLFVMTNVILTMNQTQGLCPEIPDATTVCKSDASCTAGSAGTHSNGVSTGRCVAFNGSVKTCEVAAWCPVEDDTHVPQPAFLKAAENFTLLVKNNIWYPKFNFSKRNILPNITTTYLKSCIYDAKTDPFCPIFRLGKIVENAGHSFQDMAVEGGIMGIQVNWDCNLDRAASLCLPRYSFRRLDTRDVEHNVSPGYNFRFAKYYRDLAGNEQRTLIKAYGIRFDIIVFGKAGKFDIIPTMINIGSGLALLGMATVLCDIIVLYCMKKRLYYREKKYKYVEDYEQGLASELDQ
Assay: The compound was evaluated for antagonist activity against recombinant human P2X purinoceptor 4 (P2X4)
pIC50: −log10 of the molar value.

{"STRUCTURE_STRING": "O=C(Nc1cccc(C(=O)Nc2ccc(S(=O)(=O)O)c3cc(S(=O)(=O)O)cc(S(=O)(=O)O)c23)c1)Nc1cccc(C(=O)Nc2ccc(S(=O)(=O)O)c3cc(S(=O)(=O)O)cc(S(=O)(=O)O)c23)c1", "SYSTEM": "UniProt:Q99571", "pIC50": "< 4.00"}
